Test system: HCC1937
EXPERIMENT_SUMMARY: normalised response (% of control), CellTox Green; higher = less cell death (100 = DMSO, 0 = benzethonium chloride kill control)
TEST_CONDITIONS: incubation time: 72 h
Below, each entry is listed with its recorded normalised response.
The reply should read as a number followed by its unit.

Worked set:
>  <COMPOUND>
Cn1cc(CNCC2CCN(c3ncc(C(=O)NO)cn3)CC2)c2ccccc21 [Quisinostat] (10 nM)

>  <normalised response>
114%

$$$$
>  <COMPOUND>
Cc1c(Cn2c(C)nc3c(C(=O)O)cc(N4CCOCC4)cc32)cccc1C(F)(F)F (10000 nM)

>  <normalised response>
114%

$$$$
>  <COMPOUND>
COc1cc(CCc2cc(NC(=O)c3ccc(N4CC(C)NC(C)C4)cc3)n[nH]2)cc(OC)c1 (configuration not stated) [AZD4547] (1000 nM)

>  <normalised response>
88.6%

$$$$
>  <COMPOUND>
CC[C@@]1(O)C(=O)OCc2c1cc1n(c2=O)Cc2cc3c(CN(C)C)c(O)ccc3nc2-1 [Topotecan] (100 nM)

>  <normalised response>
52.5%

$$$$
>  <COMPOUND>
COc1cc(CCc2cc(NC(=O)c3ccc(N4CC(C)NC(C)C4)cc3)n[nH]2)cc(OC)c1 (configuration not stated) [AZD4547] (100 nM)

>  <normalised response>
113%

$$$$

CC/C(=C(\c1ccc(O)cc1)c1ccc(OCCN(C)C)cc1)c1ccccc1 [4-hydroxytamoxifen] (100 nM) yielded normalised response of 89.2%

Value of measured normalised response for the entry Cc1ccc(Nc2nccc(N(C)c3ccc4c(C)n(C)nc4c3)n2)cc1S(N)(=O)=O [Pazopanib] (10000 nM) : 85.7%

====

Listing: drug sensitivity score of selected compounds
Test system: MFM-223
EXPERIMENT_SUMMARY: drug sensitivity score (DSS), CellTiter-Blue viability (DSS (AUC-based score)); higher = stronger viability inhibition; extreme values may be limits of the assay
TEST_CONDITIONS: incubation time: 72 h
// no unit, no text: just the number

Field: example entries. Status: answers known.
>  <COMPOUND>
CCN(CC)CCNC(=O)c1c(C)[nH]c(/C=C2\C(=O)Nc3ccc(F)cc32)c1C [Sunitinib]

>  <TGT>
MFM-223

>  <drug sensitivity score>
0

$$$$
>  <COMPOUND>
COc1nc(N)nc2c1ncn2[C@@H]1O[C@H](CO)[C@@H](O)[C@@H]1O [Nelarabine]

>  <TGT>
MFM-223

>  <drug sensitivity score>
0

$$$$
>  <COMPOUND>
Nc1ccccc1NC(=O)c1ccc(CNc2nccc(-c3cccnc3)n2)cc1 [Mocetinostat]

>  <TGT>
MFM-223

>  <drug sensitivity score>
3.47

$$$$

drug sensitivity score measured on Nc1cccc2c1CN(C1CCC(=O)NC1=O)C2=O (configuration not stated) [Lenalidomide] = 0

The compound listed as O=C(Nc1c[nH]nc1-c1nc2ccc(CN3CCOCC3)cc2[nH]1)NC1CC1 [AT9283] shows drug sensitivity score equal to 12.4

Kindly note the recorded drug sensitivity score for Nc1nc(=O)c2c([nH]1)NCC(CNc1ccc(C(=O)N[C@@H](CCC(=O)O)C(=O)O)cc1)N2C=O (mixture of isomers) [Folinic acid] , which is 0

Field drug sensitivity score (entry Cc1ccc(Nc2nccc(N(C)c3ccc4c(C)n(C)nc4c3)n2)cc1S(N)(=O)=O [Pazopanib] ) reads 11.6
